Examples of compounds with documented viability at 24 h, 100 µM follow.
ASSAY METHOD TEXT: Cytotoxicity against rat PC-12 cells assessed as cell viability at 100 uM measured after 24 hrs by CCK-8 assay (reference value: 100%)
Type: toxicity, cell-based
CONDITIONS USED: read-out: Activity

O=C(/C=C/c1cc(O)c(O)c(O)c1)Nc1ccc2oc(=O)ccc2c1: > 90%

May I ask what viability at 24 h, 100 µM has been recorded for O=C(Nc1ccc2oc(=O)ccc2c1)c1cc(O)ccc1O ?
> 80%

May I ask what viability at 24 h, 100 µM has been recorded for O=C(/C=C/c1cc(O)ccc1O)Nc1ccc2oc(=O)ccc2c1 ?
> 90%

May I ask what viability at 24 h, 100 µM has been recorded for O=C(/C=C/c1cc(O)ccc1O)Nc1ccc2oc(=O)c(NC(=O)/C=C/c3cc(O)ccc3O)cc2c1 ?
> 90%
